# Tested on: CAKI-1 renal
# assayNotes: NCI tumour cell line growth inhibition, 48 h
parameter: log10 of TGI (log10 of the value in µM)
The figures below represent log10 of TGI, where TGI is stated in µM.

Here's what some known entries look like.
compound: CCN(CC)CCC(=O)OC1C(C)=CC(C)C(=O)CC(C(C)CC2CCC(O)C(OC)C2)OC(=O)C2CCCCN2C(=O)C(=O)[C@@]2(O)OC(CCC2C)CC(OC)\C(C)=C/C=C/C=C/C(C)CC(C)C(=O)C1OC (some centres undefined)
log10 of TGI: 1.33
--
compound: CC(=O)Oc1c2c(c(OC(C)=O)c3c1n(C(C)=O)c1ccccc1n3C(C)=O)n(C(C)=O)c1ccccc1n2C(C)=O
log10 of TGI: 1.74
--
compound: CCC#CC[C@H](O)C/C=C1/C(=O)C=C[C@@H]1C/C=C\CCCC(=O)OC
log10 of TGI: 0.67

Enquiry: Could you tell me which log10 of TGI is on file for `C=CCOC(=O)c1c(C)n([O-])c2cc(Cl)c(Cl)cc2[n+]1=O` ?
Return: 1.60

Enquiry: Could you tell me which log10 of TGI is on file for CCCCC(=C=C(C)CO)C1CCCN1C(=O)OC(C)(C)C (centres undefined) ?
Return: 1.79
